TGT: human Src enzyme (Homo sapiens, UniProt P12931)
Construct: purchased Carna Biosciences, Inc. 08-173
Sequence (P12931 whole entry): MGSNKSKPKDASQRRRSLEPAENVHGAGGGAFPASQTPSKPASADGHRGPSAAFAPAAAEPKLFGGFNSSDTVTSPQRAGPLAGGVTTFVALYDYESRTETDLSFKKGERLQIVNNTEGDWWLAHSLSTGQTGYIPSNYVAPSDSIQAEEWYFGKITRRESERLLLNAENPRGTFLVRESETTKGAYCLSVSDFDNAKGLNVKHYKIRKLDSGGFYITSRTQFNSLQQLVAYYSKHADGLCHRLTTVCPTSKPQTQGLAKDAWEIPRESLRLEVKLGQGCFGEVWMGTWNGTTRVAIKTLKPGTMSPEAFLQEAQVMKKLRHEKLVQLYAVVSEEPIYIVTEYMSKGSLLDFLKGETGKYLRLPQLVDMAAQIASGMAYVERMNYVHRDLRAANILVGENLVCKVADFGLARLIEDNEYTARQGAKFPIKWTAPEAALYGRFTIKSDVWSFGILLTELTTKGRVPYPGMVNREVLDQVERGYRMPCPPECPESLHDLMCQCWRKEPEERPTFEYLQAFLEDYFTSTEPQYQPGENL
PROTOCOL_NOTES: Src enzyme inhibitory activity (time-resolved fluorometry, biotinylated peptide phosphorylation)
Format: biochemical
PROTOCOL_CONDITIONS: read-out: SRC_IC50
The following compounds are listed with their measured IC50 values.
API: value field is a number in nM; no unit string.

[[record]]
compound = "Cc1cc(-n2ncc(C(=O)c3cc4cc(OC5CCN(C6CCC6)CC5)c(NS(C)(=O)=O)cc4[nH]3)c2N)ccc1Oc1ccccc1F"
tgt = "human Src enzyme (Homo sapiens, UniProt P12931)"
measurement_unit = "nM"
recorded_result = 610

[[record]]
compound = "Cc1cc2cc(C(=O)c3cnn(-c4cnc(Oc5c(F)cccc5F)cc4C)c3N)[nH]c2cc1N1C(=O)NC2(CCN(Cc3ccccc3)C2)C1=O (stereo not drawn)"
tgt = "human Src enzyme (Homo sapiens, UniProt P12931)"
measurement_unit = "nM"
recorded_result = 260


Could you now look at the following compound, please?
Asked: What value of IC50 has been reported for the following compound? Cc1cc(Oc2c(F)cccc2F)ncc1-n1ncc(C(=O)c2cc3cc(OCC(F)F)c(N4C(=O)NC5(CCN(Cc6ccccc6)CC5)C4=O)cc3[nH]2)c1N
Given back: 6
